Target: UniProtKB Q9NRA0
Sequence (Q9NRA0 whole entry): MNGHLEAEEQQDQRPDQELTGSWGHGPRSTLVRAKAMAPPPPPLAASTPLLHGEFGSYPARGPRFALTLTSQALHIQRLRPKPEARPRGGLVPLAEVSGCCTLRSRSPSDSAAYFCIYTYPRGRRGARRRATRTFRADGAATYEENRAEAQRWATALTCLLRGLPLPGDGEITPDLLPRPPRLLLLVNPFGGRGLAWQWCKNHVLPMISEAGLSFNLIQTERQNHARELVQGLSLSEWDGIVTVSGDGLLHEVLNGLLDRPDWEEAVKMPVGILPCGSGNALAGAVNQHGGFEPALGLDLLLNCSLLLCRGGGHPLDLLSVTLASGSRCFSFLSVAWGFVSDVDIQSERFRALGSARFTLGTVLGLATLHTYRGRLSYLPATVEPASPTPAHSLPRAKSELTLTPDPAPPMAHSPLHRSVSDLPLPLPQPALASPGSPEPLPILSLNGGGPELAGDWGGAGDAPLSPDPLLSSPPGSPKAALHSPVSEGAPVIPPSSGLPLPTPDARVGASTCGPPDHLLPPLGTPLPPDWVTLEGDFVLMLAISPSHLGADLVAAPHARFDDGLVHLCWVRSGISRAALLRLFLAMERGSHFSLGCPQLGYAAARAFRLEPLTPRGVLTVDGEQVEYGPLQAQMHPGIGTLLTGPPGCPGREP
Test: Inhibition of recombinant human full-length N-terminal His-tagged SK2 expressed in baculovirus infected Sf9 insect cells using Sph as substrate measured after 30 mins in presence of [gamma32P]ATP by Cerenkov counting analysis
pIC50: −log10 of the molar value.
METRIC_NAME: pIC50

> print(dat)
                                  smiles.str  value.measured
 1  OC[C@H]1CCCN1Cc1ccc(COc2cccc(SCc3ccc(Cl)cc3)c2)cc1            7.51
 2  OC[C@H]1CCCN1Cc1ccc(COc2cccc(OCc3cccc(Cl)c3)c2)cc1            6.39
 3  OC[C@H]1CCCN1Cc1ccc(COc2cccc(OCc3ccccc3Cl)c2)cc1            6.82
 4  OC[C@H]1CCCN1Cc1ccc(COc2cccc(OCc3ccccc3F)c2)cc1            7.26
 5  OC[C@H]1CCCN1Cc1ccc(COc2cccc(OCc3cccc(F)c3)c2)cc1            6.84
 6  OC[C@H]1CCCN1Cc1ccc(COc2cccc(SCc3ccc(F)cc3)c2)cc1            7.77
 7  COc1ccc(COc2cccc(OCc3ccc(CN4CCC[C@@H]4CO)cc3)c2)cc1            6.92
 8  OC[C@H]1CCCN1Cc1ccc(COc2cccc(OCc3ccc(F)cc3)c2)cc1            7.31
 9  O=S(=O)(Oc1cccc(OCc2ccc(CN3CCC[C@@H]3CO)cc2)c1)c1ccccc1            6.04
10  OC[C@H]1CCCN1Cc1ccc(COc2cccc(OCc3ccc(Cl)cc3)c2)cc1            7.39
11  OC[C@H]1CCCN1Cc1ccc(COc2cccc(SCc3ccccc3)c2)cc1            7.59
12  OC[C@H]1CCCN1Cc1ccc(COc2cccc(CCc3ccccc3)c2)cc1            7.46
13  N#Cc1ccc(COc2cccc(OCc3ccc(CN4CCC[C@@H]4CO)cc3)c2)cc1            5.95
14  OC[C@H]1CCCN1Cc1ccc(COc2cccc(OCc3ccccc3)c2)cc1            7.80

Sourced from ChEMBL document CHEMBL4390677
